// reported Kd for each item listed
Target: T1, EsCas13d, nuclease-dead (Eubacterium siraeum, UniProt B0MS50, R295A;H300A;R849A;H854A)
T1 sequence: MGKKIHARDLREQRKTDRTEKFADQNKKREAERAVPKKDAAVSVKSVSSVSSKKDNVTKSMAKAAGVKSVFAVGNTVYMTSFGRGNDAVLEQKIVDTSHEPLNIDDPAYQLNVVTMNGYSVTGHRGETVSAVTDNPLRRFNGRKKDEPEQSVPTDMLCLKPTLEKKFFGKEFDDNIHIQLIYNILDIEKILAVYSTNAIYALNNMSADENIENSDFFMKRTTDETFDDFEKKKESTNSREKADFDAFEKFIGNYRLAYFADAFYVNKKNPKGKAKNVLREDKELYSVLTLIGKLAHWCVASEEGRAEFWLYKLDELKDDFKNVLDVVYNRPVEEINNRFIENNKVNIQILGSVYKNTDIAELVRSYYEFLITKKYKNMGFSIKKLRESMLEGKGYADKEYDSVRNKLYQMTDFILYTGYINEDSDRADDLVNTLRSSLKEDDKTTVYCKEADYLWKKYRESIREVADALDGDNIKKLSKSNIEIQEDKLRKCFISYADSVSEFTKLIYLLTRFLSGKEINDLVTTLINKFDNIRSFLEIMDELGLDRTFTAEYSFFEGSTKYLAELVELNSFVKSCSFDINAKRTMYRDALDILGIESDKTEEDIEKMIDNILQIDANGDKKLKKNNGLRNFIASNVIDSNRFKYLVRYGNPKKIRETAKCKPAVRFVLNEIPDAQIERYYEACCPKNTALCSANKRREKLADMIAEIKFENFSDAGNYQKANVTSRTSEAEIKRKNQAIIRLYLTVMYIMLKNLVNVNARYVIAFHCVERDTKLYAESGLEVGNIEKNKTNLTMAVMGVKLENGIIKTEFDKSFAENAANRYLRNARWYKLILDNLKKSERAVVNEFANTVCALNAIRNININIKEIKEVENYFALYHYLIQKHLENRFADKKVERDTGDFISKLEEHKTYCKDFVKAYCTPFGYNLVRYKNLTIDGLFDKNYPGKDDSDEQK
Assay: crRNA (strand 1, pre-loaded); Mg2+; 40 mM Tris-HCl pH 7.5, 150 mM NaCl, 6 mM MgCl2, 1 mM DTT, 0.1% Tween-20, 0.2 mg/ml BSA; 25 C; 10 min per concentration, then washed
Details: tags: His6-TwinStrep-SUMO cleaved; N-terminal SNAP kept (SNAP-Surface 488); label: 3' end held by stalled T7 RNA polymerase
Give a bare numeral; the unit µM is implied.

Answered examples (4):
INSERT INTO measurements (binder, uom, recorded_number) VALUES
  ('target 1 insU 3'' of 14,insC 3'' of 3 (mixed) RNA 1: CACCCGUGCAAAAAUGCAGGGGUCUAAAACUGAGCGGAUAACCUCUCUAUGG RNA 2: GGGAAUGGAUCCACAUCUACGAAUUCGUACCAUAGAGAUGGUUAUCCGCUCCACCGAGAUCGGAAGAGCACACGU', 'µM', 0.08),
  ('target 3 G3U,U7G (mixed) RNA 1: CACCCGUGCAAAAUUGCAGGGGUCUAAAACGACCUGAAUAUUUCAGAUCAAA RNA 2: GGGAAUGGAUCCACAUCUACGAAUUCGUUUUUGAUCUGAAAUAUGCAGUUCUGCAGAUCGGAAGAGCACACGU', 'µM', 0.0331),
  ('target 1 C4G,G12A (mixed) RNA 1: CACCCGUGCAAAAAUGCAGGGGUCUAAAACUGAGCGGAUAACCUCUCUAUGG RNA 2: GGGAAUGGAUCCACAUCUACGAAUUCGUACCAUAGAGAGAUUAUCCGGUCACCGAGAUCGGAAGAGCACACGU', 'µM', 0.00339),
  ('target 1 insU 3'' of 17,insU 3'' of 15 (mixed) RNA 1: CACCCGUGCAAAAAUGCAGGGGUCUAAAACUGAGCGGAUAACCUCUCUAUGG RNA 2: GGGAAUGGAUCCACAUCUACGAAUUCGUACCAUAGUAGUAGGUUAUCCGCUCACCGAGAUCGGAAGAGCACACGU', 'µM', 0.064);

Note to self: Kd recorded for target 1 MT 5'PFS GUU 3'PFS CGG (mixed) RNA 1: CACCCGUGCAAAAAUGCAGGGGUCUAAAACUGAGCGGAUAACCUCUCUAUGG RNA 2: GGGAAUGGAUCCACAUCUACGAAUUCGUUCCAUAGAGAGGUUAUCCGCUCACGGAGAUCGGAAGAGCACACGU was 0.067

Note to self: Kd recorded for target 1 insA 3' of 22,insU 3' of 7 (mixed) RNA 1: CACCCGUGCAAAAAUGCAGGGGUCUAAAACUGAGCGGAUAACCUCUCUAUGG RNA 2: GGGAAUGGAUCCACAUCUACGAAUUCGUACACAUAGAGAGGUUAUCUCGCUCACCGAGAUCGGAAGAGCACACGU was 0.0153

Note to self: Kd recorded for target 1 insC 3' of 20,insU 3' of 20 (mixed) RNA 1: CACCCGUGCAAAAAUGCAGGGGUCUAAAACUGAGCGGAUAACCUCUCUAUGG RNA 2: GGGAAUGGAUCCACAUCUACGAAUUCGUACCACUUAGAGAGGUUAUCCGCUCACCGAGAUCGGAAGAGCACACGU was 0.0183

Note to self: Kd recorded for target 2 MT 5'PFS GUG 3'PFS AAC (mixed) RNA 1: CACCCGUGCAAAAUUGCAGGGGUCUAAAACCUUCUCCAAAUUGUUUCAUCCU RNA 2: GGGAAUGGAUCCACAUCUACGAAUUCGUGAGGAUGAAACAAUUUGGAGAAGAACAGAUCGGAAGAGCACACGU was 0.0105

Note to self: Kd recorded for target 2 MT 5'PFS UUG 3'PFS AUU (mixed) RNA 1: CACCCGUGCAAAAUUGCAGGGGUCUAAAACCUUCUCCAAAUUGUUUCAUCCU RNA 2: GGGAAUGGAUCCACAUCUACGAAUUCUUGAGGAUGAAACAAUUUGGAGAAGAUUAGAUCGGAAGAGCACACGU was 0.0119

Note to self: Kd recorded for target 1 insU 3' of 21,insA 3' of 12 (mixed) RNA 1: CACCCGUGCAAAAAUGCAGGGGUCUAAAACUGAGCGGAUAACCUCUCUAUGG RNA 2: GGGAAUGGAUCCACAUCUACGAAUUCGUACCUAUAGAGAGGAUUAUCCGCUCACCGAGAUCGGAAGAGCACACGU was 0.063

Note to self: Kd recorded for target 1 MT 5'PFS AAA 3'PFS UGU (mixed) RNA 1: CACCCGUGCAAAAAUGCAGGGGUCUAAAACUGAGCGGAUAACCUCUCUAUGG RNA 2: GGGAAUGGAUCCACAUCUACGAAUUCAAACCAUAGAGAGGUUAUCCGCUCAUGUAGAUCGGAAGAGCACACGU was 0.0405

Note to self: Kd recorded for target 2 MT 5'PFS GUA 3'PFS AGA (mixed) RNA 1: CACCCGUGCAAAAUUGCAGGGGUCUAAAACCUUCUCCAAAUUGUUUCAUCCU RNA 2: GGGAAUGGAUCCACAUCUACGAAUUCGUAAGGAUGAAACAAUUUGGAGAAGAGAAGAUCGGAAGAGCACACGU was 0.0065

Note to self: Kd recorded for target 2 MT 5'PFS GAU 3'PFS CAC (mixed) RNA 1: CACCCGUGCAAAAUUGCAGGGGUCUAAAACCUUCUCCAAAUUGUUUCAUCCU RNA 2: GGGAAUGGAUCCACAUCUACGAAUUCGAUAGGAUGAAACAAUUUGGAGAAGCACAGAUCGGAAGAGCACACGU was 0.0113
